Target: Prostaglandin E2 receptor EP3 subtype (Homo sapiens, UniProt P43115)
Sequence (P43115 whole entry): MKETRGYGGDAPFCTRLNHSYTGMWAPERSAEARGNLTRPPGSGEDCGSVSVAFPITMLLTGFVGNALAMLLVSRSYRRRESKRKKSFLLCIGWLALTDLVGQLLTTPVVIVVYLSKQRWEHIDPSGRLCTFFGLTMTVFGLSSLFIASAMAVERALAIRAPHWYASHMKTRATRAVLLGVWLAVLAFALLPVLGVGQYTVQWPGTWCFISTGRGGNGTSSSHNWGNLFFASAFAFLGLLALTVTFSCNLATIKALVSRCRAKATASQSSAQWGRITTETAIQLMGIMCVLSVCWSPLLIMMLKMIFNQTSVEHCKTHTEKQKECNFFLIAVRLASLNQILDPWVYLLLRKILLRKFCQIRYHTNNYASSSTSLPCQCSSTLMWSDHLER
List of Ki values.

C[C@H](NC(=O)c1cccc2ccn(Cc3cccc(Cl)c3)c12)c1ccc(C(=O)O)cc1
≥ 2500 nM

Challenge: Bench note: what Ki did C[C@H](NC(=O)c1cccc2ccn(Cc3cccc(C(F)(F)F)c3)c12)c1ccc(C(=O)O)cc1 show?
Response given: ≥ 785 nM

Challenge: Bench note: what Ki did C[C@H](NC(=O)c1cccc2c(Cl)cn(Cc3cccc(Cl)c3)c12)c1ccc(C(=O)O)cc1 show?
Response given: ≥ 930 nM

Challenge: Bench note: what Ki did C[C@H](NC(=O)c1cc(Cl)cc2ccn(Cc3cccc(Cl)c3)c12)c1ccc(C(=O)O)cc1 show?
Response given: ≥ 110 nM

====

Biological target: Prostaglandin F2-alpha receptor (Homo sapiens)
Sequence (P43088 whole entry): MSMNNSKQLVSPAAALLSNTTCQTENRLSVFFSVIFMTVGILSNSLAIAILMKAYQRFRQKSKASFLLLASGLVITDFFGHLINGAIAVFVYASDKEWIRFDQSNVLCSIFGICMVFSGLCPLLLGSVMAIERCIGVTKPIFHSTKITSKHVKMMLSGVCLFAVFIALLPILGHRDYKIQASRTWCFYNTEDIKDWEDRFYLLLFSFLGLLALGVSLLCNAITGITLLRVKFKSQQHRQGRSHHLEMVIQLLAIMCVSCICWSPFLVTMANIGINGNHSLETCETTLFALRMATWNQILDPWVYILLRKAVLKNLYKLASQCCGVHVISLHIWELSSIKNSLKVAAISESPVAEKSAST
Measurement name: Ki

# example entries with known answers
C[C@H](NC(=O)c1cccc2c(Cl)cn(Cc3cccc(Cl)c3)c12)c1ccc(C(=O)O)cc1
≥ 930 nM
C[C@H](NC(=O)c1cc(Cl)cc2ccn(Cc3ccc(C(F)(F)F)cc3)c12)c1ccc(C(=O)O)cc1
≥ 100 nM
C[C@H](NC(=O)c1cccc2ccn(Cc3ccc(C(F)(F)F)cc3)c12)c1ccc(C(=O)O)cc1
≥ 580 nM

Please look at the following compound next.
Challenge: Bench note: what Ki did C[C@H](NC(=O)c1cccc2ccn(Cc3cccc(C(F)(F)F)c3)c12)c1ccc(C(=O)O)cc1 show?
Response given: ≥ 785 nM

Cited source: ChEMBL document CHEMBL1155539
